Tested on: Alopecurus myosuroides (ALOMY)
Assay: Post-emergence biological efficacy, glasshouse pot test
Format: in vivo
Conditions: 312 h, post-emergence, 1,000 g/ha, evaluated after 13 days (100=total damage; 0=no damage), read-out: Percentage damage caused to weed species, ALOMY
measured_endpoint: pest or weed control at 1000 g/ha (%)

compound	unit_info	recorded_value
COC(=O)c1nc(C2CC2)nc(NCC(F)c2ccc(Cl)cc2Cl)c1Cl (stereo not drawn)	%	0
COC(=O)c1nc(C2CC2)nc(NCCSCc2ccccc2)c1Cl	%	10
COC(=O)c1nc(C2CC2)nc(NCc2c(C)cc(Cl)cc2Cl)c1Cl	%	20
COC(=O)c1nc(C2CC2)nc(NCc2ccc(Cl)cc2)c1Cl	%	40
COC(=O)c1nc(C2CC2)nc(NC2CCC2)c1Cl	%	50
COC(=O)c1nc(C2CC2)nc(Nc2ccccc2)c1Cl	%	50
COC(=O)c1nc(C2CC2)nc(N[C@@H](C)[C@H](O)c2ccccc2)c1Cl	%	40
COC(=O)c1nc(C2CC2)nc(NCc2c(OC)cccc2OC)c1Cl	%	30
COC(=O)c1nc(C2CC2)nc(N[C@H]2COC[C@H]2O)c1Cl [4-38 (S,S)]	%	30

====

# maps each entry to its pest or weed control at 1000 g/ha
Test system: Alopecurus myosuroides (ALOMY)
Assay: Pre-emergence biological efficacy, glasshouse pot test
Format: in vivo
Settings: 312 h, pre-emergence, rate 1,000 g/ha, evaluated after 13 days (100=total damage to plant; 0=no damage), read-out: Percentage damage caused to weed species, ALOMY

molecule	pest or weed control at 1000 g/ha
C=CCN(Cc1ccccc1F)c1nc(C2CC2)nc(C(=O)OC)c1Cl	0%
COC(=O)c1nc(C2CC2)nc(N(Cc2ccccc2)CC(O)c2ccccc2)c1Cl (centres unmarked)	10%
COC(=O)c1nc(C2CC2)nc(N(C)Cc2ccc(OC)cc2)c1Cl	0%
CCN(Cc1ccc(F)cc1)c1nc(C2CC2)nc(C(=O)OC)c1Cl	20%
COC(=O)c1nc(C2CC2)nc(N(C)C(C)C(O)c2ccccc2)c1Cl (centres unmarked)	10%
O=C(OCc1ccccc1)c1nc(C2CC2)nc(NCc2ccco2)c1Cl	50%
COC(=O)c1nc(-c2ccc(F)c(C(F)(F)F)c2)nc(NCc2ccco2)c1Cl	30%
COC(=O)c1nc(C2CC2)nc(N(CCO)Cc2cccnc2)c1Cl	0%
CCCOC(=O)c1nc(C2CC2)nc(NCc2ccco2)c1Cl	40%
COC(=O)c1nc(Cl)nc(NCc2ccco2)c1Cl	20%
COC(=O)c1nc(C2CC2)nc(N(C)CCc2ccccc2)c1Cl	0%
CCOC(=O)c1nc(C2CC2)nc(NCc2ccco2)c1Cl	60%
CCN(c1nc(C2CC2)nc(C(=O)OC)c1Cl)C1CCCCC1	10%
COC(=O)c1nc(-c2ccc(Cl)c(F)c2Cl)nc(NCc2ccco2)c1Cl	60%
CCN(Cc1ccccc1F)c1nc(C2CC2)nc(C(=O)OC)c1Cl	10%
CCCN(Cc1ccccc1)c1nc(C2CC2)nc(C(=O)OC)c1Cl	0%
CCC(C)N(Cc1ccccc1)c1nc(C2CC2)nc(C(=O)OC)c1Cl (centres unmarked)	0%
CCN(Cc1c(F)cccc1Cl)c1nc(C2CC2)nc(C(=O)OC)c1Cl	0%
COC(=O)c1nc(-c2ccc(Cl)c([N+](=O)[O-])c2)nc(NCc2ccco2)c1Cl	0%
O=C(O)c1nc(-c2ccc(Cl)cc2)nc(NCc2ccco2)c1Cl	50%
COC(=O)c1nc(C2CC2)nc(N(C)Cc2ccco2)c1Cl	40%
COC(=O)c1nc(-c2ccc(Cl)s2)nc(NCc2ccco2)c1Cl	0%
C=CCCN(Cc1ccccc1)c1nc(C2CC2)nc(C(=O)OC)c1Cl	0%
COC(=O)c1nc(-c2cc(Cl)c(Cl)cc2Cl)nc(NCc2ccco2)c1Cl	0%
COC(=O)c1nc(-c2ccc(Cl)c(C)c2)nc(NCc2ccco2)c1Cl	0%
COC(=O)c1nc(-c2ccc(C)c(F)c2)nc(NCc2ccco2)c1Cl	0%
COc1c(Cl)ccc(-c2nc(NCC3CC3)c(Cl)c(C(=O)O)n2)c1F	10%
COC(=O)c1nc(C2CC2)nc(N(Cc2ccc(C)o2)C(C)C)c1Cl	40%
CCCN(Cc1ccc(C)cc1)c1nc(C2CC2)nc(C(=O)OC)c1Cl	30%
C=CCN(Cc1cccs1)c1nc(C2CC2)nc(C(=O)OC)c1Cl	0%
CCN(Cc1ccc(Br)s1)c1nc(C2CC2)nc(C(=O)OC)c1Cl	0%
COC(=O)c1nc(-c2ccc(Cl)c(C(F)(F)F)c2)nc(NCc2ccco2)c1Cl	20%
CCOC(=O)CCN(Cc1ccccc1)c1nc(C2CC2)nc(C(=O)OC)c1Cl	10%
COC(=O)c1nc(-c2ccc(Cl)c(OC)c2F)nc(NCc2ccco2)c1Cl	70%
COC(=O)c1nc(C2CC2)nc(N(C)Cc2cccc(C(F)(F)F)c2)c1Cl	10%

====

Tested on: Alopecurus myosuroides (ALOMY)
Assay: Pre-emergence biological efficacy, glasshouse pot test
Assay type: in vivo
Settings: 312 h, pre-emergence, rate 1,000 g/ha, evaluated after 13 days (100=total damage to plant; 0=no damage), read-out: Percentage damage caused to weed species, ALOMY
measured_endpoint: pest or weed control at 1000 g/ha (%)

substance_smiles	recorded_value
COC(=O)c1nc(-c2ccc(Cl)cc2)nc(NCc2ccco2)c1Cl	40
COC(=O)c1nc(C2CC2)nc(N(C)Cc2c(Cl)cccc2Cl)c1Cl	0
COC(=O)c1nc(-c2ccc(F)cc2)nc(NCc2ccco2)c1Cl	10
COC(=O)c1nc(-c2ccc(OC)c(F)c2)nc(NCc2ccco2)c1Cl	0
CC(C)OC(=O)c1nc(C2CC2)nc(NCc2ccco2)c1Cl	50
CCCCN(Cc1ccccc1)c1nc(C2CC2)nc(C(=O)OC)c1Cl	40
COC(=O)c1nc(-c2ccc(OC(F)(F)F)cc2)nc(NCc2ccco2)c1Cl	0
COC(=O)c1nc(-c2ccc(F)c(F)c2F)nc(NCc2ccco2)c1Cl	10
CCN(Cc1ccco1)c1nc(C2CC2)nc(C(=O)OC)c1Cl	50

====

Tested on: Setaria faberi (SETFA)
Experiment: Pre-emergence biological efficacy, glasshouse pot test
Assay type: in vivo
Settings: 312 h, pre-emergence, rate 1,000 g/ha, evaluated after 13 days (100=total damage to plant; 0=no damage), read-out: Percentage damage caused to weed species, SETFA
measured_endpoint: pest or weed control at 1000 g/ha

substance_smiles	target_system	recorded_value
CC(C)OC(=O)c1nc(C2CC2)nc(NCc2ccco2)c1Cl	Setaria faberi (SETFA)	70%
COC(=O)c1nc(C2CC2)nc(N(C)Cc2ccc(Cl)cc2)c1Cl	Setaria faberi (SETFA)	20%
COC(=O)c1nc(-c2ccc(Cl)c(OC)c2)nc(NCc2ccco2)c1Cl	Setaria faberi (SETFA)	30%
CCCN(Cc1ccccc1)c1nc(C2CC2)nc(C(=O)OC)c1Cl	Setaria faberi (SETFA)	10%
COC(=O)c1nc(C2CC2)nc(N(C)Cc2cccc([N+](=O)[O-])c2)c1Cl	Setaria faberi (SETFA)	10%
COCCN(C/C=C/c1ccco1)c1nc(C2CC2)nc(C(=O)OC)c1Cl	Setaria faberi (SETFA)	0%
COC(=O)c1nc(-c2ccc(OC)c(OC)c2)nc(NCc2ccco2)c1Cl	Setaria faberi (SETFA)	0%
C=CCN(Cc1ccc(Cl)s1)c1nc(C2CC2)nc(C(=O)OC)c1Cl	Setaria faberi (SETFA)	0%

====

System: Echinochloa crus-galli (ECHCG)
Assay: Pre-emergence biological efficacy, glasshouse pot test
Assay type: in vivo
Conditions: 312 h, pre-emergence, rate 1,000 g/ha, evaluated after 13 days (100=total damage to plant; 0=no damage), read-out: Percentage damage caused to weed species, ECHCG

compound	target_system	pest or weed control at 1000 g/ha
COC(=O)c1nc(C2CC2)nc(N(C)[C@@H](Cc2ccccc2)C(=O)OC)c1Cl [5-283 (S)]	Echinochloa crus-galli (ECHCG)	0%
COC(=O)c1nc(C2CC2)nc(N(C)CC2OCCO2)c1Cl [Compound 5-54]	Echinochloa crus-galli (ECHCG)	0%
COC(=O)c1nc(C2CC2)nc(N(C)Cc2ccc(N)cc2)c1Cl [Compound 5-86]	Echinochloa crus-galli (ECHCG)	50%
COC(=O)c1nc(C2CC2)nc(N(Cc2ccc(C)o2)C(C)C)c1Cl [Compound 146-135]	Echinochloa crus-galli (ECHCG)	10%
COC(=O)c1nc(C2CC2)nc(N(C/C=C/c2ccccc2OC)C(C)C)c1Cl [Compound 146-255]	Echinochloa crus-galli (ECHCG)	10%
COC(=O)c1nc(C2CC2)nc(N(Cc2ccccc2)Cc2ccccc2)c1Cl [Compound 155-60]	Echinochloa crus-galli (ECHCG)	0%

====

Catalogue of pest or weed control at 1000 g/ha readings, one per entry.
Tested on: Echinochloa crus-galli (ECHCG)
Assay: Pre-emergence biological efficacy, glasshouse pot test
Assay type: in vivo
Conditions: 312 h, pre-emergence, rate 1,000 g/ha, evaluated after 13 days (100=total damage to plant; 0=no damage), read-out: Percentage damage caused to weed species, ECHCG

substance_smiles	unit_info	pest or weed control at 1000 g/ha
C=CCN(Cc1ccc(F)cc1)c1nc(C2CC2)nc(C(=O)OC)c1Cl	%	0
COC(=O)c1nc(Cl)nc(NCC2CC2)c1Cl	%	0
C=Cc1ccc(-c2c(NCc3ccco3)nc(C3CC3)nc2C(=O)OC)cc1	%	0
CCN(Cc1ccc(F)cc1)c1nc(C2CC2)nc(C(=O)OC)c1Cl	%	0
COC(=O)c1nc(-c2ccc(Cl)s2)nc(NC2CC2)c1Cl	%	0
COC(=O)c1nc(-c2ccc(OC)c(Cl)c2)nc(NCc2ccco2)c1Cl	%	0
COC(=O)c1nc(-c2ccc(C(F)(F)F)cc2)nc(NCc2ccco2)c1Cl	%	20
COC(=O)c1nc(C2CC2)nc(N(C)Cc2cccc([N+](=O)[O-])c2)c1Cl	%	0
COC(=O)c1nc(-c2cc(F)c(Cl)c(F)c2)nc(NCc2ccco2)c1Cl	%	0
C=CCN(Cc1cc(Cl)ccc1OC)c1nc(C2CC2)nc(C(=O)OC)c1Cl	%	0
COC(=O)c1nc(-c2ccc(Cl)c(C#N)c2)nc(NCc2ccco2)c1Cl	%	0
COC(=O)c1nc(C2CC2)nc(N(C)Cc2ccncc2)c1Cl	%	20
COC(=O)c1nc(C2CC2)nc(N(C)Cc2cccc(C(F)(F)F)c2)c1Cl	%	20
COC(=O)c1nc(-c2ccc(Cl)c(C)c2)nc(NCc2ccco2)c1Cl	%	30
COC(=O)c1nc(C2CC2)nc(N(C)Cc2ccc([N+](=O)[O-])cc2)c1Cl	%	10
COC(=O)c1nc(C2CC2)nc(N(C)Cc2ccco2)c1Cl	%	70
COC(=O)c1nc(-c2ccc(Cl)c(C(F)(F)F)c2F)nc(NCc2ccco2)c1Cl	%	20
